Recorded composite z-score by entry
experiment: probe aInhba binding on compound microarray – biochemical, small-molecule microarray, 635/667 nm fluorescence, primary screen (AID 1148); details: higher = more signal;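 also: score merges 667nm spot fluorescence with signal-to-noise for antibody binding to printed compounds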

COMPOUND | composite z-score
COCCOC(=O)N1C(=O)[C@@]2(c3cc(C#CC4=CCCCC4)ccc31)[C@H](c1ccccc1OCCO)N1[C@H](c3ccccc3)[C@H](c3ccccc3)OC(=O)[C@H]1[C@@H]2C(=O)N1CCN(c2ncccn2)CC1 | 0.181
CCCCCCCCCC(O)C1C=CC2C(=O)N(c3ccccc3)C(=O)C2N1Nc1cc(OC)c(OC)c(OC)c1 (stereo not drawn) | -0.0334
COc1ccccc1CN1C(=O)c2ccccc2[C@](Cc2ccccc2I)(C(=O)O)[C@@H]1c1ccc(CO)cc1 | 0.0753
CC(C)N1C(=O)C[C@@](C(=O)O)(c2ccc([N+](=O)[O-])cc2)[C@H]1c1ccc(CO)cc1 | -0.0288
C=CCNC(=O)[C@@H]1[C@H]2C(=O)O[C@H](c3ccccc3)[C@H](c3ccccc3)N2[C@H](c2ccccc2OCCO)[C@@]12C(=O)Nc1ccc(C#CCC(C(=O)OC)C(=O)OC)cc12 | 0.84
COc1ccc(C#Cc2ccc3c(c2)[C@]2(C(=O)N3)[C@H](c3ccc(O)cc3)N3[C@H](c4ccccc4)[C@H](c4ccccc4)OC(=O)[C@H]3[C@@H]2C(=O)Nc2nc3ccccc3s2)cc1 | 0.0797
C[C@@H]1NC(=O)[C@@H](Cc2ccccc2)NC(=O)[C@@]23C(=O)N[C@@H](Cc4ccccc4)C2[C@H](C)[C@@]2(C)O[C@H]2C3/C=C/C/C=C\CNC1=O (stereo partly drawn) | -0.187
COc1cc2c(cc1O)C(C1CC1)N(C)CC2 (stereo not drawn) | -0.203
O=c1cccc(-c2ccc([N+](=O)[O-])cc2)o1 | 0.165
NC(=O)NCC#Cc1ccc2c(c1)[C@]1(C(=O)N2)[C@H](C(=O)N2CCN(c3ncccn3)CC2)[C@H]2C(=O)O[C@H](c3ccccc3)[C@H](c3ccccc3)N2[C@@H]1c1ccc(O)cc1 | -0.352
COCCCNC(=O)[C@@]1(CCC(=O)OC(C)(C)C)N=C(c2ccc(OCCCO)cc2)O[C@H]1c1ccccc1N=[N+]=[N-] | 0.545
CCOC(=O)C[C@H]1[C@H](OC(=O)c2ccc(C(=O)c3ccccc3)cc2)[C@@H](NC(=O)c2ccc3ccccc3n2)c2cc(OCCCO)ccc2N1C(=O)Cc1ccc(OC)cc1 | -0.0521
CCN(CC)c1ccc(N2CC=CC34O[C@@H]5/C=C\CCCOC(=O)C5[C@H]3C(=O)N(C(C)CO)[C@@H]4C2=O)cc1 (stereo partly drawn) | -0.0986

----------
assay: growth effects on S. cerevisiae YJM789 – YJM789 clinical isolate, OD600, 24 h, basal, primary screen (AID 1089); conditions: called active from +8 up or from −8 down;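 also: growth of clinical yeast isolate S. cerevisiae YJM 789 seeded 1000 cells per well; test concentration not given here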
Calls of active or inactive are those of the source.
Outcomes: active, inactive

COMPOUND | CAT
C=CC[C@@H](OC(=O)Nc1ccc(OC)cc1)c1ccc(O)c(F)c1 | active
C=CCNC(=O)[C@@H]1[C@H]2C(=O)O[C@H](c3ccccc3)[C@H](c3ccccc3)N2[C@H](c2ccc(O)cc2)[C@@]12C(=O)N(C(=O)OCCOC)c1ccc(C#CC3=CCCCC3)cc12 | inactive
[N-]=[N+]=Nc1ccccc1C[C@@]1(C(N)=O)N=C(c2ccc(OCCCO)cc2)O[C@@H]1c1ccccc1N=[N+]=[N-] | inactive
CCCC[C@@H](O)C1=C(COc2ccccc2)C[C@H]2C(=O)N(Cc3ccccc3)C(=O)[C@H]2[C@H]1CO | inactive
CCCCC(CC)C(O)C1C=CC2C(=O)N(c3ccccc3)C(=O)C2N1Nc1ccccc1F (stereo not drawn) | inactive
COc1ccc([C@H]2OC[C@@H]3C[C@H](Cc4ccccc4)C(=O)N32)cc1 | inactive
CCC#CCN(Cc1ccccc1Br)[C@H](/C=C/C1CC1)[C@@H](O)Cc1ccccc1 | inactive
O[C@@H](Cc1ccccc1)[C@@H](/C=C/C1CC1)N(CC#Cc1ccccc1)Cc1ccccc1Br | inactive

----------
target: Concanavalin-A (Canavalia ensiformis); experiment: compounds binding concanavalin A lectin – biochemical, small-molecule microarray, Alexa647 label, 635 nm, artefact control for SMM control protein annotation, primary screen (AID 1127); conditions: ConA-A647 binding fluorescence, higher = more signal;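 also: z combines 667 nm emission intensity with signal-to-noise across three replicate slides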

MOLECULE | composite z-score
CCCC=C(CCC)[C@@H](NS(=O)(=O)c1ccc(C(F)(F)F)cc1)c1ccccc1 | 0.277
O=C1[C@H]2C=C(I)[C@H](C[C@@H]2OCCOCCO)[C@@]12CO2 | 0.2
COC(=O)[C@@]1(Cc2ccc(OC)cc2)[C@H]2c3cc(C(=O)N4CCCC4)n(CCc4c[nH]c5ccc(OC)cc45)c3C[C@H]2CN1C(=O)c1ccccc1 | 0.852
CN(C)c1ccc(C(O)C2C=CC3C(=O)NC(=O)C3N2Nc2ccccn2)cc1 (centres undefined) | 0.372

----------
// reported composite z-score per item
tested on: PRMT1 (protein arginine N-methyltransferase 1); test: small molecules binding arginine methyltransferase PRMT1 – biochemical, small-molecule microarray, 635 nm fluorescence, primary screen (AID 1088); settings: higher = more signal;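 also: binding of Prmt1 protein to compounds spotted on small-molecule microarray slides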

COMPOUND | composite z-score
CCOC(=O)C1=C[C@@H](C(C)C)N(S(=O)(=O)c2ccc(C)cc2)[C@H]1c1ccc(C(F)(F)F)cc1 | 1.35
CN(C)C(=O)[C@@]1(Cc2ccccc2CN=[N+]=[N-])N=C(c2ccc(OCCCO)cc2)O[C@H]1c1ccccc1N=[N+]=[N-] | 1.43
COC(=O)C1(CC(C)C)C=C2C(=C(c3ccccc3)C(=O)C2C)CN1 (centres undefined) | -0.291
CCOC(=O)C[C@H]1[C@H](OC(=O)c2cc3ccccc3oc2=O)[C@@H](NC(=O)c2ccc3ccccc3n2)c2cc(OCCCO)ccc2N1C(=O)Cc1ccc(OC)cc1 | 1.45
C=CCN1C(=O)[C@]2(CCS(=O)(=O)c3ccccc3)N=C(c3ccc(OCCCO)cc3)O[C@@H]2c2ccccc21 | 1.54
N#Cc1ccc(NN2C(C(O)c3ccc(Br)cc3)C=CC3C(=O)N(c4ccccc4)C(=O)C32)cc1 (centres undefined) | 0.751
COC(=O)[C@@H]1N=C(c2ccc(OCCCO)cc2)O[C@@H]1c1ccccc1 | -1.01
[N-]=[N+]=NCc1ccccc1[C@@H]1OC(c2ccc(OCCCO)cc2)=N[C@]1(CCS(=O)(=O)c1ccccc1)C(=O)O | 0.627
[N-]=[N+]=Nc1ccccc1[C@@H]1OC(c2ccc(OCCCO)cc2)=N[C@]1(Cc1ccccc1)C(=O)O | 1.56
CCOC(=O)C[C@H]1[C@H](OC(=O)c2ccccc2-c2ccccc2)[C@@H](NC(=O)c2ccc3ccccc3c2)c2cc(OCCCO)ccc2N1C(=O)c1ccccc1 | 0.633
CCOC(=O)C1=C[C@@H](c2ccccc2)N(S(=O)(=O)c2ccc(C)cc2)[C@H]1c1ccc(OC)cc1 | 1.24
CC(C)c1ccc(NN2C(C(O)c3ccc(F)cc3)C=CC3C(=O)N(c4ccccc4)C(=O)C32)cc1 (centres undefined) | 1.47
Cc1cc(C)c(C(O)C2C=CC3C(=O)N(c4ccccc4)C(=O)C3N2Nc2ccccc2F)c(C)c1 (centres undefined) | -0.0446
COc1ccc([Si](C)(C)[C@H]2[C@H](CC(=O)N3Cc4ccccc4C[C@H]3CO)O[C@@]3(C(=O)N(Cc4ccc(N5CCOC5=O)cc4)c4ccccc43)[C@@H]2C)cc1 | 1.57
COC(=O)[C@@]1(Cc2ccccc2)[C@H]2c3cc(C(=O)N4CCCC4)n(CCc4ccccn4)c3C[C@H]2CN1C(=O)c1ccccc1 | 0.123
Cc1ccc(NN2C(C(O)c3c(F)cccc3Cl)C=CC3C(=O)N(C4CCCCC4)C(=O)C32)cc1 (centres undefined) | 1.43
CCCCN1CC=CC23O[C@@H]4/C=C\CCCOC(=O)C4[C@H]2C(=O)N(CCO)[C@@H]3C1=O (some centres undefined) | -0.328
COC(=O)C(CC#Cc1ccc2c(c1)[C@]1(C(=O)N2)[C@H](c2ccc(O)cc2)N2[C@H](c3ccccc3)[C@H](c3ccccc3)OC(=O)[C@H]2[C@@H]1C(=O)NC[C@H](O)c1ccccc1)C(=O)OC | 1.55
NC(=O)NCC#Cc1ccc2c(c1)[C@]1(C(=O)N2)[C@H](C(=O)N2CCN(c3ncccn3)CC2)[C@H]2C(=O)O[C@H](c3ccccc3)[C@H](c3ccccc3)N2[C@@H]1c1ccc(O)cc1 | 1.33
NCCCCCNC(=O)[C@@H]1C[C@@H]2C(=O)N[C@@H](CCCCN)C(=O)N2[C@@H]1c1ccc(O)cc1 | 1.53
C[N+](C)(C)CCCC[C@@H]1NC(=O)[C@@H]2C[C@H](C(=O)NCCCCCCN)[C@H](c3cccc(OCCO)c3)N2C1=O | 1.45
COC(=O)[C@]1(CCS(=O)(=O)c2ccccc2)N=C(c2ccc(OCCCO)cc2)O[C@@H]1c1ccccc1N=[N+]=[N-] | 1.54
CC(C)[Si](C#C[Si](C(C)C)(C(C)C)C(C)C)(O[C@H](c1ccccc1)c1cn(Cc2ccccc2)nn1)C(C)C | 1.26
[N-]=[N+]=Nc1ccccc1C[C@]1(C(=O)NCCN2CCOCC2)COC(c2ccc(OCCCO)cc2)=N1 | 1.29
C=C[C@@H](CO)N(Cc1ccc(OC)cc1)S(=O)(=O)c1ccc(Br)cc1 | -0.043
COc1ccc([Si](C)(C)[C@@H]2[C@@H](CC(=O)N3Cc4ccccc4C[C@H]3CO)O[C@]3(C(=O)N(Cc4ccc(N5C(=O)c6cccc7cccc5c67)cc4)c4ccccc43)[C@H]2C)cc1 | 1.55
O[C@@H](Cc1ccccc1)[C@@H](/C=C/C1CC1)N(CC#Cc1ccccc1)Cc1ccccc1Br | -0.0917
C=C(COC)C(=O)CC[C@@H](OC(C)=O)c1cccc(OCCO)c1 | -0.352
CC(C)NC(=O)[C@@]1(C)c2ccccc2C(=O)N(Cc2ccc(OC(F)(F)F)cc2)[C@H]1c1ccc(CO)cc1 | 0.911
